Biological target: CDK7/cyclinH/MAT1 trimeric complex (Homo sapiens)
Sequence (P50613 whole entry): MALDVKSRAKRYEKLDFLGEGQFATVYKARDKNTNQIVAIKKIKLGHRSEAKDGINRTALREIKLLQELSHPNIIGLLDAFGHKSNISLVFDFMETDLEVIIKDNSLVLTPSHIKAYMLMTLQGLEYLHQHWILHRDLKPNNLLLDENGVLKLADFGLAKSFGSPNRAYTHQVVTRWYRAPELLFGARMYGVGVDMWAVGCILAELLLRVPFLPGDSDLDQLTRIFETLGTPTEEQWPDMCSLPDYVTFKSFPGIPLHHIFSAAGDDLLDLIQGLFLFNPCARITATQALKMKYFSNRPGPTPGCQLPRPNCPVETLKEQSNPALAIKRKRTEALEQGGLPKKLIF
Sequence (P51946 whole entry partner): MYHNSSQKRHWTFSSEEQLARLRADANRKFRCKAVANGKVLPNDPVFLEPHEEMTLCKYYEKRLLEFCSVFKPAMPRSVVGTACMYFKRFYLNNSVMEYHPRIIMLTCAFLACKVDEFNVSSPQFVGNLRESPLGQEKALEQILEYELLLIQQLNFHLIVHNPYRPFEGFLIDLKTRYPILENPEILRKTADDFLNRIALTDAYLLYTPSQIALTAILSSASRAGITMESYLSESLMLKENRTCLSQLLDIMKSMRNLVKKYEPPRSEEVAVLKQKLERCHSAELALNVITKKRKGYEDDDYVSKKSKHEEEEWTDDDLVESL
Sequence (P51948 whole entry partner): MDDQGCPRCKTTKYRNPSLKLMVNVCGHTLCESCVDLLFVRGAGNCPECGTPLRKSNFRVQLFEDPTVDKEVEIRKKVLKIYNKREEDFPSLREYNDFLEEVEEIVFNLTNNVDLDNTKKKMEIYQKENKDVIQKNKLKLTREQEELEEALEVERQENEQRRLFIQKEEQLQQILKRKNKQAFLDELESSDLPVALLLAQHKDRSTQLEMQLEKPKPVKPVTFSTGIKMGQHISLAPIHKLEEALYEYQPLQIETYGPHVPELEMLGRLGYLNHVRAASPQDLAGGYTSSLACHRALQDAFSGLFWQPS
Experiment: In vitro CDK7 assay, potency of irreversible covalent inhibitors (kinact/KI), coupled PK/LDH ADP readout at 340 nm
Conditions: read-out: CDK7 (20 nM enz.) (kobs/[I], M^−1*s^−1), 20 nM enzyme
observable: kinact/KI (M⁻¹ s⁻¹)

compound="C=CC(=O)N1CC(N2CC[C@@H](c3ccc4c(c3)Nc3nccc(N5CCOCC5)c3CO4)C(C)(C)C2)C1 (single isomer, unassigned) [Compound 69]" systemname="CDK7/cyclinH/MAT1 trimeric complex (Homo sapiens)" observable=kinact/KI unittag="M⁻¹ s⁻¹" observedmeasurement=529
compound="C=CC(=O)N1CC(N2CCC(c3ccc4c(c3)Nc3nccc(C5CCOCC5)c3CO4)CC2)C1 [compound 34]" systemname="CDK7/cyclinH/MAT1 trimeric complex (Homo sapiens)" observable=kinact/KI unittag="M⁻¹ s⁻¹" observedmeasurement=1030

1: CC#CC(=O)N1CC(N2CCC(c3cc(C#N)c4c(c3)Nc3nccc(N5CCOCC5)c3C(C)O4)CC2)C1 (single isomer, unassigned) [Compound 443]
2: C#Cc1cc2c(cc1C1CCN(C3CN(C(=O)C=C)C3)CC1)Nc1nccc(N3CCOCC3)c1[C@H](C)O2 (single isomer, unassigned) [Compound 214]
3: C=CC(=O)N1CC(n2cc(-c3cc(C#N)c4c(c3)Nc3nccc(N5CCOCC5)c3CO4)cn2)C1 [Compound 285]
Query block: Endpoint returns the given compounds ordered by ascending kinact/KI. # output: labels, in the requested order
Result block: 2, 3, 1

----------
observable: melting point (°C)

a: CC#CC(=O)N1CC(N2CCC(c3cc4c(c(C5CC5)n3)OCc3c(N5CCOCC5)ccnc3N4)CC2)C1
b: C=CC(=O)Nc1ccc(C(=O)Nc2ccc3c(c2)Nc2nccc(C4CCOCC4)c2CO3)cc1
c: C=CC(=O)N1CC[C@@H](N2CCC(c3ccc4c(c3)Nc3ncc(F)c(N5CCOCC5)c3CO4)CC2)C1 (single isomer, unassigned)
Query block: Put the items in order so that reported melting point rises from first to last. # output: labels, in the requested order
Result block: c, a, b
(c: 106 °C, a: 174.8 °C, b: 281.1 °C)

A: C=CC(=O)N1CC(N2CCC(c3cc(C#N)c4c(c3)Nc3nccc(N5CCOCC5)c3[C@H](C)O4)CC2)C1 (single isomer, unassigned)
B: C=CC(=O)N1CC(N2CCC(c3ccc4c(c3)OCc3c(N5CCOCC5)ccnc3N4)CC2)C1
Query block: A or B : whose melting point is greater? # respond with the chosen item's label
Result block: A

1: C=CC(=O)N1CC(N2CCC(c3cc4c(c(C)n3)OCc3c(-c5cnn(C)c5)ccnc3N4)CC2)C1
2: CC#CC(=O)N1CC(N2CCC(c3cc4c(c(C)n3)OCc3c(N5CCOCC5)ccnc3N4)CC2)C1
Query block: // compare measured melting point between 1 and 2 ; output the lower one # respond with the chosen item's label
Result block: 2
(2: 178.5 °C, 1: 277.8 °C)

1: C=CC(=O)N1CC(N2CCC(c3ccc4c(c3)Nc3nccc(-c5cnn(C)c5)c3[C@H](C)O4)CC2)C1 (single isomer, unassigned)
2: C=C(C(=O)N1CC(N2CCC(c3cc4c(c(C)n3)O[C@H](C)c3c(N5CCOCC5)ccnc3N4)CC2)C1)n1cccn1 (single isomer, unassigned)
Query block: 1 or 2 : whose melting point is greater? # respond with the chosen item's label
Result block: 1

Reference source for all entries: patent US20240254138A1
